Source listed as patent US20220387457A1.

ASSAY_PROTOCOL: Toxicokinetics after escalating intravenous doses of CKLP1 in beagles
Format: in vivo, beagle dog
EXPERIMENTAL_CONDITIONS: both sexes, beagle, dog, in vivo, iv, 3 mg/kg; read-out: Cmax at MTD, sex-combined
PARAMETER: Cmax (ng/mL)
Answers are plain numbers, in ng/mL.

Prompt: What value of Cmax has been reported for the following compound? CC1(C)Oc2ccc(C#N)cc2[C@@H](N2CCCC2=O)[C@@H]1O [Levcromakalim, levcromakalim, reference compound]
Response: 35.5

====

ASSAY_PROTOCOL: Toxicokinetics after escalating intravenous doses of CKLP1 in beagles
Format: in vivo, beagle dog
EXPERIMENTAL_CONDITIONS: female, beagle, dog, in vivo, iv, 3 mg/kg
PARAMETER: AUC(0-inf) (µg·h/mL)
Numbers only, in µg·h/mL.

COMPOUND: CC1(C)Oc2ccc(C#N)cc2[C@@H](N2CCCC2=O)[C@@H]1O [Levcromakalim, levcromakalim, reference compound]
PARAMETER: AUC(0-inf)
QUANTITATIVE_RESULT: 0.404

Next, consider the following compound.
Prompt: What value of AUC(0-inf) has been reported for the following compound? CC1(C)Oc2ccc(C#N)cc2[C@@H](N2CCCC2=O)[C@@H]1OP(=O)(O)O [CKLP1]
Response: 129

====

ASSAY_PROTOCOL: Plasma pharmacokinetics, 28-day topical ophthalmic dosing in beagle dogs
EXPERIMENTAL_CONDITIONS: female, beagle, dog, in vivo, topical or ocular, 0.27 mg/kg, AUC0-last
PARAMETER: AUC(0-t) (ng·h/mL)
Numbers only, in ng·h/mL.

Prompt: What value of AUC(0-t) has been reported for the following compound? CC1(C)Oc2ccc(C#N)cc2[C@@H](N2CCCC2=O)[C@@H]1OP(=O)(O)O [CKLP1]
Response: 496

====

ASSAY_PROTOCOL: Plasma pharmacokinetics, 28-day topical ophthalmic dosing in beagle dogs
EXPERIMENTAL_CONDITIONS: male, beagle, dog, in vivo, topical or ocular, 0.81 mg/kg, CKLP1; Male; topical 8.0% CKLP1 daily; Day 1; read-out: Cmax
PARAMETER: Cmax (ng/mL)
Numbers only, in ng/mL.

Prompt: What value of Cmax has been reported for the following compound? CC1(C)Oc2ccc(C#N)cc2[C@@H](N2CCCC2=O)[C@@H]1OP(=O)(O)O [CKLP1]
Response: 166

====

ASSAY_PROTOCOL: Plasma pharmacokinetics, 28-day topical ophthalmic dosing in beagle dogs
EXPERIMENTAL_CONDITIONS: female, beagle, dog, in vivo, topical or ocular, 1.07 mg/kg
PARAMETER: AUC(0-inf) (ng·h/mL)
Give bare numbers, in ng·h/mL.

Prompt: What value of AUC(0-inf) has been reported for the following compound? CC1(C)Oc2ccc(C#N)cc2[C@@H](N2CCCC2=O)[C@@H]1OP(=O)(O)O
Response: 1860

====

ASSAY_PROTOCOL: Toxicokinetics after escalating intravenous doses of CKLP1 in beagles
Format: in vivo, beagle dog
EXPERIMENTAL_CONDITIONS: female, beagle, dog, in vivo, iv, 5 mg/kg
PARAMETER: half-life (h)
Answers are plain numbers, in h.

Prompt: What value of half-life has been reported for the following molecule? CC1(C)Oc2ccc(C#N)cc2[C@@H](N2CCCC2=O)[C@@H]1OP(=O)(O)O
Response: 5.98

====

ASSAY_PROTOCOL: Toxicokinetics after escalating intravenous doses of CKLP1 in beagles
Format: in vivo, beagle dog
EXPERIMENTAL_CONDITIONS: female, beagle, dog, in vivo, iv, 5 mg/kg
PARAMETER: AUC(0-inf) (µg·h/mL)
Give bare numbers, in µg·h/mL.

Prompt: What value of AUC(0-inf) has been reported for the following molecule? CC1(C)Oc2ccc(C#N)cc2[C@@H](N2CCCC2=O)[C@@H]1OP(=O)(O)O [CKLP1]
Response: 330

====

ASSAY_PROTOCOL: Toxicokinetics after escalating intravenous doses of CKLP1 in beagles
Assay type: in vivo, beagle dog
EXPERIMENTAL_CONDITIONS: female, beagle, dog, in vivo, iv, 1.5 mg/kg
Experimental: Two beagles (one male and one female) were intravenously injected with escalating doses of CKPL1 (0.05 mg/kg, 0.5 mg/kg, 1.5 mg/kg, 3 mg/kg, and 5 mg/kg) to assess the toxicity of CKLP1. […] The following parameters and endpoints were evaluated: mortality, clinical observations, body and organ weights, and food consumption. […] Toxicokinetics (TK) were determined based on the individual exposures for each animal on each sampled study day (days 1, 3, 8, 10, and 14). […]
PARAMETER: Cmax (ng/mL)
Answers are plain numbers, in ng/mL.

COMPOUND: CC1(C)Oc2ccc(C#N)cc2[C@@H](N2CCCC2=O)[C@@H]1OP(=O)(O)O [CKLP1]
Cmax, ng/mL: 9050

Next, consider the following compound.
Prompt: What value of Cmax has been reported for the following compound? CC1(C)Oc2ccc(C#N)cc2[C@@H](N2CCCC2=O)[C@@H]1O [Levcromakalim, levcromakalim, reference compound]
Response: 15.6

====

ASSAY_PROTOCOL: Toxicokinetics after escalating intravenous doses of CKLP1 in beagles
Format: in vivo, beagle dog
EXPERIMENTAL_CONDITIONS: female, beagle, dog, in vivo, iv, 5 mg/kg
PARAMETER: C0

Prompt: What value of C0 has been reported for the following molecule? CC1(C)Oc2ccc(C#N)cc2[C@@H](N2CCCC2=O)[C@@H]1OP(=O)(O)O
Response: 32200 ng/mL

====

ASSAY_PROTOCOL: Toxicokinetics after escalating intravenous doses of CKLP1 in beagles
Assay type: in vivo, beagle dog
EXPERIMENTAL_CONDITIONS: female, beagle, dog, in vivo, iv, 3 mg/kg
PARAMETER: half-life (min)
Answers are plain numbers, in min.

Prompt: What value of half-life has been reported for the following compound? CC1(C)Oc2ccc(C#N)cc2[C@@H](N2CCCC2=O)[C@@H]1OP(=O)(O)O [CKLP1]
Response: 176

====

ASSAY_PROTOCOL: Toxicokinetics after escalating intravenous doses of CKLP1 in beagles
Assay type: in vivo, beagle dog
EXPERIMENTAL_CONDITIONS: male, beagle, dog, in vivo, iv, 5 mg/kg
Description: Two beagles (one male and one female) were intravenously injected with escalating doses of CKPL1 (0.05 mg/kg, 0.5 mg/kg, 1.5 mg/kg, 3 mg/kg, and 5 mg/kg) to assess the toxicity of CKLP1. […] The following parameters and endpoints were evaluated: mortality, clinical observations, body and organ weights, and food consumption. […] Toxicokinetics (TK) were determined based on the individual exposures for each animal on each sampled study day (days 1, 3, 8, 10, and 14). […]
PARAMETER: Tmax (h)
Answers are plain numbers, in h.

Prompt: What value of Tmax has been reported for the following compound? CC1(C)Oc2ccc(C#N)cc2[C@@H](N2CCCC2=O)[C@@H]1OP(=O)(O)O
Response: 1

====

ASSAY_PROTOCOL: Plasma pharmacokinetics of CKLP1 and levcromakalim after topical dosing in hound dogs
Type: in vivo, hound dog
EXPERIMENTAL_CONDITIONS: hound, dog, plasma, topical or ocular, 10 mM CKLP1, 50 µL in each of both eyes, CKLP1; topical 10 mM CKLP1 once daily; Day 4
PARAMETER: Cmax (ng/mL)
One number for each entry, in ng/mL.

Prompt: What value of Cmax has been reported for the following compound? CC1(C)Oc2ccc(C#N)cc2[C@@H](N2CCCC2=O)[C@@H]1OP(=O)(O)O
Response: 12.2

====

ASSAY_PROTOCOL: Toxicokinetics after escalating intravenous doses of CKLP1 in beagles
Format: in vivo, beagle dog
EXPERIMENTAL_CONDITIONS: male, beagle, dog, in vivo, iv, 0.5 mg/kg
PARAMETER: Tmax (h)
Give bare numbers, in h.

Prompt: What value of Tmax has been reported for the following compound? CC1(C)Oc2ccc(C#N)cc2[C@@H](N2CCCC2=O)[C@@H]1OP(=O)(O)O [CKLP1]
Response: 1

====

ASSAY_PROTOCOL: Toxicokinetics after escalating intravenous doses of CKLP1 in beagles
Assay type: in vivo, beagle dog
EXPERIMENTAL_CONDITIONS: male, beagle, dog, in vivo, iv, 3 mg/kg
PARAMETER: AUC(0-t) (ng·h/mL)
Give bare numbers, in ng·h/mL.

Prompt: What value of AUC(0-t) has been reported for the following compound? CC1(C)Oc2ccc(C#N)cc2[C@@H](N2CCCC2=O)[C@@H]1OP(=O)(O)O
Response: 85100

====

ASSAY_PROTOCOL: Plasma pharmacokinetics, 28-day topical ophthalmic dosing in beagle dogs
EXPERIMENTAL_CONDITIONS: male, beagle, dog, in vivo, topical or ocular, 0.41 mg/kg, AUC0-last
PARAMETER: AUC(0-t) (ng·h/mL)
One number for each entry, in ng·h/mL.

Prompt: What value of AUC(0-t) has been reported for the following molecule? CC1(C)Oc2ccc(C#N)cc2[C@@H](N2CCCC2=O)[C@@H]1OP(=O)(O)O
Response: 520
